# System: SR leukemia
Answer with one of the outcomes Y for active, N for inactive

Reference set, count: 4
C=C(C)[C@@H]1CC[C@]2(C)[C@H](C(=O)C=C3[C@@H]4C[C@](C)(C(=O)N5CCN(C)CC5)CC[C@]4(C)CC[C@]32C)[C@@]1(C)CCC#N :: N
CC(C)CCOc1ccc(-c2n[nH]c(C(F)(F)F)c2-c2cncc(C#N)c2)c(O)c1 :: N
NC(CSC(c1ccccc1)(c1ccccc1)c1ccc(Cl)cc1)C(=O)O (stereo not given) :: Y
CCC[CH2][Sn]([CH2]CCC)([O]C(=O)c1cc(F)cc(F)c1)[O]C(=O)c1cc(F)cc(F)c1 :: N

Here's the next entry for you.
// query # lookup: test call for CCCCCCCC/C=C/CCCCCCCCC1=NCCN1CCO
// result N
